test: Thermodynamic solubility measurements; format: physicochemical; conditions: aqueous solution, aqueous buffer, thermodynamic from solid; pH 4, molar value in brackets; read-out: solubility at pH 4
ENDPOINT LABEL: solubility (µM)
Provide only the numeric value, understood in µM.

For the compound CCn1c(=O)c2c(nc3n2CCN(Cc2cccc(F)c2)C3)n(C)c1=O [Compound 14g] , what solubility is on record?
140

###

This listing pairs compounds with measured % inhibition of radioligand binding at indicated concentration, A2A vs. [^3H]MSX-2.
molecular target: rat A2A AR (Rattus norvegicus, UniProt P30543); construct: A2A ARs of rat brain striatal membrane preparations; from tissue; host or cells: rat brain striatum membranes; assay: Radioligand binding assay at rat A2A AR (rat brain striatum) vs. [^3H]MSX-2; settings: rat (r); at 1,000 nM
Sequence (P30543 whole entry): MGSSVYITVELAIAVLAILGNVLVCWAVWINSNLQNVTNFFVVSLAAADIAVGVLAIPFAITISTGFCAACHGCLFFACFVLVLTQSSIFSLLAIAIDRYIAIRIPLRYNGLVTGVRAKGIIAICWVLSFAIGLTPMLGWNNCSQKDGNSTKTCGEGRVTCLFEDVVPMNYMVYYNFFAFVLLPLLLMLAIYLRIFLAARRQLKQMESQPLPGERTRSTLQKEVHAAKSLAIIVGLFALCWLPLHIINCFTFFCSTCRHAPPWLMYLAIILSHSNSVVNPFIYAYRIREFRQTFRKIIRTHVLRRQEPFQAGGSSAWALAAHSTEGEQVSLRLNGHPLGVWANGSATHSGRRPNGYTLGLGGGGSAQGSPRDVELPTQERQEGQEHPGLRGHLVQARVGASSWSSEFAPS
The answer consists of two parts: a number and, after it, its unit.

For the compound CCn1c(=O)c2c(nc3n2CCN(Cc2ccc(Cl)cc2C(F)(F)F)C3)n(CC)c1=O [Compound 15o] , what % inhibition of radioligand binding at indicated concentration, A2A vs. [^3H]MSX-2 is on record?
19%

For the compound CCn1c(=O)c2c(nc3n2CCN(Cc2ccccc2C(F)(F)F)C3)n(CC)c1=O [Compound 15f] , what % inhibition of radioligand binding at indicated concentration, A2A vs. [^3H]MSX-2 is on record?
32%

For the compound CCn1c(=O)c2c(nc3n2CCN(Cc2cccc(Cl)c2)C3)n(CC)c1=O [Compound 15c] , what % inhibition of radioligand binding at indicated concentration, A2A vs. [^3H]MSX-2 is on record?
22%

For the compound CCn1c(=O)c2c(nc3n2CCN(Cc2cccc(F)c2)C3)n(C)c1=O [Compound 14g] , what % inhibition of radioligand binding at indicated concentration, A2A vs. [^3H]MSX-2 is on record?
18%

For the compound CCn1c(=O)c2c(nc3n2CCN(Cc2cccc(Cl)c2)C3)n(C)c1=O [Compound 14i] , what % inhibition of radioligand binding at indicated concentration, A2A vs. [^3H]MSX-2 is on record?
33%

For the compound Cn1c(=O)[nH]c(=O)c2c1nc1n2CCN(CCc2cccc(Cl)c2)C1 [Compound 13c] , what % inhibition of radioligand binding at indicated concentration, A2A vs. [^3H]MSX-2 is on record?
1%

###

molecular target: rat A1 AR (Rattus norvegicus); construct: A1 ARs of rat brain cortical membrane; from tissue; host or cells: rat brain cortex membranes; test: Radioligand binding assay at rat A1 AR (rat brain cortex) vs. [^3H]CCPA; conditions: read-out: % inhibition of radioligand binding at indicated concentration, A1 vs. [^3H]CCPA; rat (r); at 1,500 nM
Sequence (P25099 whole entry): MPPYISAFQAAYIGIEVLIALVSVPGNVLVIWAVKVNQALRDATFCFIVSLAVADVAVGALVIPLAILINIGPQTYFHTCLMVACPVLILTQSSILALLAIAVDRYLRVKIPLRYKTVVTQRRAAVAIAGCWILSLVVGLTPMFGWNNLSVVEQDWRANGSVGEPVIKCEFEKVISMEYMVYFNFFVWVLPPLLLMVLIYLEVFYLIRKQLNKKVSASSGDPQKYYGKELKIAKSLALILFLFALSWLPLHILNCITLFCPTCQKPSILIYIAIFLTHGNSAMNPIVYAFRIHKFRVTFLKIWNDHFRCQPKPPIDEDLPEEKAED
This listing pairs molecules with measured inhibition at 1.5 µM.
Provide only the numeric value, understood in %.

Previously resolved entries follow.
{"MOLECULE": "CCn1c(=O)c2c(nc3n2CCN(Cc2cc(F)c(F)c(F)c2)C3)n(CC)c1=O [Compound 15r]", "inhibition at 1.5 µM (%)": 25}
{"MOLECULE": "CCn1c(=O)c2c(nc3n2CCN(Cc2ccc(C(F)(F)F)cc2)C3)n(C)c1=O [Compound 14f]", "inhibition at 1.5 µM (%)": 9}
{"MOLECULE": "Cn1c(=O)[nH]c(=O)c2c1nc1n2CCN(CCc2ccc(Cl)cc2Cl)C1 [Compound 13f]", "inhibition at 1.5 µM (%)": 5}

# ---- query molecule ----
For the molecule Cn1c(=O)[nH]c(=O)c2c1nc1n2CCN(Cc2cccc(C(F)(F)F)c2)C1 [Compound 13b] , what inhibition at 1.5 µM is on record?
-1

###

Target: recombinant human MAO-B (Homo sapiens)
Construct: purchased Sigma-Aldrich M7441; host or cells: baculovirus-infected insect cells
Sequence (P27338 1-520): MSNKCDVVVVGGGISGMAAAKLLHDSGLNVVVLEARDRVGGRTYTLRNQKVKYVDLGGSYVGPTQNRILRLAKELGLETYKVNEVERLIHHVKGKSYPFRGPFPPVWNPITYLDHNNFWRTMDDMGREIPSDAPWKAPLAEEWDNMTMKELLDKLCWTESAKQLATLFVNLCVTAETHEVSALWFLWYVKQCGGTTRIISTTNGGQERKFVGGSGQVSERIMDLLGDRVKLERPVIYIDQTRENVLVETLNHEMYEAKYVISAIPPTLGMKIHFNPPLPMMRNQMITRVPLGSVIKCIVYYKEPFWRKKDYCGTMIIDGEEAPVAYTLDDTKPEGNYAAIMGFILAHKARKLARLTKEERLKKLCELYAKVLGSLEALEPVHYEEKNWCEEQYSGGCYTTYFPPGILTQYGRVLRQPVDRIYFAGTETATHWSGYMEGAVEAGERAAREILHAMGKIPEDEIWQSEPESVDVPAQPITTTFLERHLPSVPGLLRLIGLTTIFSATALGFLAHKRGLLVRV
Assay: Monoamine oxidase assay (Amplex Red), MAO-B
Format: biochemical
Settings: n = 3; read-out: IC50 ± SEM, Human MAO-B
This listing pairs compounds with measured pIC50.
Reminder that pIC50 means the negative base-10 logarithm of the concentration expressed in mol/L.

For the compound CCn1c(=O)c2c(nc3n2CCN(Cc2ccc(Br)cc2)C3)n(C)c1=O [Compound 14c] , what pIC50 is on record?
5.79

For the compound CCn1c(=O)c2c(nc3n2CCN(Cc2ccc(F)c(C(F)(F)F)c2)C3)n(CC)c1=O [Compound 15i] , what pIC50 is on record?
5.51

For the compound Cn1c(=O)[nH]c(=O)c2c1nc1n2CCN(CCc2ccc(Cl)cc2Cl)C1 [Compound 13f] , what pIC50 is on record?
5.54

For the compound CCn1c(=O)c2c(nc3n2CCN(Cc2ccc(Br)cc2)C3)n(CC)c1=O [Compound 15e] , what pIC50 is on record?
5.19

###

Here's a batch of molecules along with measured Ki for rat A1 AR (Rattus norvegicus, UniProt P25099).

Previously resolved entries follow.
{"MOLECULE": "C#CCn1c(=O)c2c(nc3n2CCN(Cc2ccc(Cl)c(Cl)c2)C3)n(C)c1=O [Compound 19a]", "ASSAYED TARGET": "rat A1 AR (Rattus norvegicus, UniProt P25099)", "Ki": "292 nM"}
{"MOLECULE": "CCn1c(=O)c2c(nc3n2CCN(Cc2ccccc2C(F)(F)F)C3)n(C)c1=O [Compound 14d]", "ASSAYED TARGET": "rat A1 AR (Rattus norvegicus, UniProt P25099)", "Ki": "114 nM"}
{"MOLECULE": "CCn1c(=O)c2c(nc3n2CCN(Cc2ccc(Br)cc2)C3)n(C)c1=O [Compound 14c]", "ASSAYED TARGET": "rat A1 AR (Rattus norvegicus, UniProt P25099)", "Ki": "156 nM"}

For the molecule CCn1c(=O)c2c(nc3n2CCN(Cc2ccc(Cl)cc2C(F)(F)F)C3)n(CC)c1=O [Compound 15o] , what Ki is on record?
> 1500 nM

###

biological target: human A2B AR (Homo sapiens, UniProt P29275); construct: expressed in transfected cells; host or cells: CHO cells; experiment: Radioligand binding assay at human A2B AR vs. [^3H]PSB-603; conditions: at 1,000 nM, read-out: % inhibition of radioligand binding at indicated concentration, A2B vs. [^3H]PSB-603
Sequence (P29275 whole entry): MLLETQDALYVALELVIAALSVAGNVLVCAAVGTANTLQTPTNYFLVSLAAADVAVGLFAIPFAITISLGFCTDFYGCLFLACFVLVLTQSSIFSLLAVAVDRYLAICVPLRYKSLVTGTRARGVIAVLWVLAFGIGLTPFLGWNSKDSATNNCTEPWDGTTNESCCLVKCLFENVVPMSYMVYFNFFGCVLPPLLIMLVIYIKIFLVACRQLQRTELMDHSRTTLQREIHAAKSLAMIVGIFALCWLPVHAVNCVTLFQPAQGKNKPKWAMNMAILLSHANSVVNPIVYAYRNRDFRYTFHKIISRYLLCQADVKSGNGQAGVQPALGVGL
Consider the following partition of reported inhibition at 1 µM into named classes: lowest: < 10%; middle: ≥ 10% and < 20%; highest: ≥ 20%

Use the examples below as a reference point.
{"MOLECULE": "CCn1c(=O)c2c(nc3n2CCN(Cc2cc(F)cc(Cl)c2)C3)n(C)c1=O [Compound 14n]", "CATEGORY LABEL": "lowest"}
{"MOLECULE": "C#CCn1c(=O)c2c(nc3n2CCN(c2cccc(OC)c2)C3)n(CC)c1=O [Compound 20c]", "CATEGORY LABEL": "highest"}
{"MOLECULE": "CCn1c(=O)c2c(nc3n2CCN(Cc2cccc(C(F)(F)F)c2)C3)n(CC)c1=O [Compound 15g]", "CATEGORY LABEL": "highest"}
{"MOLECULE": "C#CCn1c(=O)c2c(nc3n2CCN(CCc2cccc(OC)c2)C3)n(CC)c1=O [Compound 20j]", "CATEGORY LABEL": "middle"}
{"MOLECULE": "Cn1c(=O)[nH]c(=O)c2c1nc1n2CCN(CCc2ccc(Cl)c(Cl)c2)C1 [Compound 13g]", "CATEGORY LABEL": "lowest"}
{"MOLECULE": "CCn1c(=O)c2c(nc3n2CCN(Cc2ccccc2F)C3)n(CC)c1=O [Compound 15a]", "CATEGORY LABEL": "middle"}

Just checking, what class would you give CCn1c(=O)c2c(nc3n2CCN(Cc2ccc(Cl)c(C(F)(F)F)c2)C3)n(CC)c1=O [Compound 15p] here?
highest

Just checking, what class would you give C#CCn1c(=O)c2c(nc3n2CCN(Cc2cccc(OC)c2)C3)n(CC)c1=O [Compound 20g] here?
highest

Just checking, what class would you give Cn1c(=O)[nH]c(=O)c2c1nc1n2CCN(CCc2ccc(Cl)cc2Cl)C1 [Compound 13f] here?
lowest

Just checking, what class would you give C#CCn1c(=O)c2c(nc3n2CCN(c2ccc(F)cc2)C3)n(CC)c1=O [Compound 20b] here?
middle

Just checking, what class would you give CCn1c(=O)c2c(nc3n2CCN(Cc2cc(Br)ccc2F)C3)n(C)c1=O [Compound 14o] here?
middle

Just checking, what class would you give CCn1c(=O)c2c(nc3n2CCN(Cc2ccc(Br)cc2)C3)n(C)c1=O [Compound 14c] here?
lowest

Just checking, what class would you give CCn1c(=O)c2c(nc3n2CCN(Cc2cc(C(F)(F)F)ccc2Cl)C3)n(CC)c1=O [Compound 15n] here?
highest

Just checking, what class would you give CCn1c(=O)c2c(nc3n2CCN(Cc2ccc(F)c(C(F)(F)F)c2)C3)n(CC)c1=O [Compound 15i] here?
highest
